# Test system: MCF7 breast
# run.description: NCI tumour cell line growth inhibition, 48 h; in the data active = GI50 below about 0.43 µM; inactive = the rest
Possible outcomes: active, inactive

compound | system.tested | classification
COc1ccc(N(/C=C/C(=O)C(F)(F)F)CC(=O)c2ccc(Cl)c(Cl)c2)cc1 | MCF7 breast | inactive
CCOC(=O)c1cc(C(=O)c2cc(OC)c(OC)c(OC)c2)n2ccccc12 | MCF7 breast | active
CNCCCNCCCN1C(=O)c2ccc3c4c(ccc(c24)C1=O)C(=O)N(CCCNCc1ccccc1OC)C3=O | MCF7 breast | inactive
Cc1[nH]nc2c1N=C(c1ccccc1Cl)c1cc([N+](=O)[O-])ccc1N2 | MCF7 breast | active
Fc1ccc2[nH]cc(SSc3c[nH]c4ccc(F)cc34)c2c1 | MCF7 breast | inactive
CC(C)Nc1ncc2cc(Oc3ccc(F)cc3F)c(=O)n(C)c2n1 | MCF7 breast | inactive
CCOC(=O)Nc1nc2c(C)cccc2s1 | MCF7 breast | inactive
NC1CCC(N[C@@H]2C[C@H]2c2ccccc2)CC1 (some centres not stated) | MCF7 breast | inactive
N#Cc1c(N)nc(N2CCOCC2)c(C#N)c1-c1ccccc1Cl | MCF7 breast | inactive
COc1ccc2c(c1)C1(C(=O)N2)C(C#N)=C(c2ccccc2)Nc2c1c(-c1ccccc1)nn2-c1ccccc1 (configuration not stated) | MCF7 breast | inactive
CCSc1nnc(-c2ccc3ccccc3c2O)n1-c1ccc(Cl)cc1 | MCF7 breast | inactive
NC(=O)c1ccc2nc3c(n2c1)C(=O)C(=O)c1ccccc1-3 | MCF7 breast | active

---

Recorded measurements of TGI, one per entry
# Test system: SN12C renal
# run.description: NCI tumour cell line growth inhibition, 48 h

molecule | censor.symbol | TGI (µM)
NC1(C(=O)O)CCCC1 | > | 625
CCNCCCn1c2c(c3ccc([N+](=O)[O-])cc3c1=O)C(=O)c1cc(OC)cnc1-2 | = | 1.08
CC1(C)CCC(=O)NC1CC(=O)CC1NC(=O)CCC1(C)C (configuration not stated) | > | 100
CC(=O)OCC1=C(C)C[C@H]([C@@H](COC(C)=O)C2CCC3C4C[C@H]5O[C@]56CC=CC(=O)[C@]6(C)C4CC[C@@]32C)OC1=O (some centres not stated) | = | 1.18
CC12CCC(C(Nc3ccccn3)C1=O)C2(C)C (configuration not stated) | > | 100
O=C1c2ccccc2-c2nc(/C=C/c3ccccc3)cc3c2c1nc1ccccc13 | > | 100
C1COCCOCCOCCOCCO1.CC(=O)[CH-]C(C)=O.CC(=O)[CH-]C(C)=O.CC(=O)[CH-]C(C)=O.[V] | = | 62.3

---

# System: CAKI-1 renal
# run.description: NCI tumour cell line growth inhibition, 48 h

molecule | TGI
Cc1cc(=O)oc2cc(OS(C)(=O)=O)ccc12 | > 100 µM
Nn1c(Cc2ccccc2)n[nH]c1=O | > 100 µM
O=c1c2cccnc2ncn1CCN1CCCC1 | > 100 µM
O=C(Nc1ccccc1)Nc1cccc(Oc2nnc(Cl)c3ccccc23)c1 | 14.3 µM
COc1cc(/C=C2\C(=O)Nc3cccc(Cl)c32)cc(OC)c1OC | > 100 µM
CCCN(CCSSCCNc1nc(N(C)O)nc(N(C)O)n1)c1nc(N(C)O)nc(N(C)O)n1 | > 100 µM
c1ccc2c(c1)CC1COc3ccccc3C1O2 (stereo unspecified) | > 100 µM
Nc1ncnc2c1cnn2Cc1ccc(Cl)cc1 | > 100 µM
C=C1C[C@@]2(C)C(CC[C@]3(C)C2CC=C2C4CC(C)(C)C[C@@H](OC(=O)/C(C)=C\C)[C@]4(C(=O)O)CC[C@]23C)C(C)(C)C1=O (stereo partly specified) | 4.72 µM
CC/C=C/c1cc2cc[nH]c2c2c1C(C)C[C@@H]2C (stereo partly specified) | > 100 µM
CCN(CC)CCCOc1cc2c(cc1OC)C(=O)N1CCC[C@H]1C=N2 | 44.3 µM

---

# Tested on: SF-268 CNS
# run.description: NCI tumour cell line growth inhibition, 48 h

compound | TGI
COc1cc(C2c3cc4c(cc3[C@@H](Nc3cccc([N+](=O)[O-])c3)C3COC(=O)[C@H]23)OCO4)cc(OC)c1O (stereo not given in full) | > 51.5 µM
Cc1nc(C(N)=S)sc1C(=O)C/C(=N/N)C(=O)Nc1ccc(Cl)cc1 | > 100 µM
NC(=O)CC(N=C1C(=O)OC(C(O)CO)C1=NC(CC(N)=O)C(=O)O)C(=O)O (stereo not given) | > 100 µM
COc1ccc(-c2cc(-c3cc(F)c(Cl)cc3Cl)on2)cc1OC | > 100 µM
O=C(O)C1CCCCC1c1c2ccc(=O)cc-2oc2cc(O)ccc12 (stereo not given) | > 100 µM
C[C@H](N)C(=O)N1C[C@H](CCCB(O)O)[C@](N)(C(=O)O)C1 | > 100 µM
c1ccc2c(c1)CC1COc3ccccc3C1O2 (stereo not given) | > 100 µM
CC(=O)O[C@H]1[C@@H](OC(C)=O)C(C)(C)/C=C/[C@H](C)C(=O)[C@@]2(OC(C)=O)C[C@@](C)(OC(C)=O)[C@H](OC(C)=O)[C@@H]2[C@H]2OC(=O)CC[C@@]2(OC(=O)c2ccccc2)[C@@H]1OCC(C)C | > 100 µM
NC(=O)c1nnsc1NC=O | > 100 µM
CC1(CC2=C(C(=O)NCCO[Si](C)(C)C(C)(C)C)C3(OCCO3)C2=O)OCCO1 | > 100 µM
CNCCCNCCCN1C(=O)c2ccc3c4c(ccc(c24)C1=O)C(=O)N(CCCNCc1ccccc1OC)C3=O | 9.02 µM
Cc1ccc(Sc2sc(-c3ccccc3)nc2[P+](c2ccccc2)(c2ccccc2)c2ccccc2)cc1 | 1.43 µM
O=C1c2ccccc2-c2nc(/C=C/c3ccccc3)cc3c2c1nc1ccccc13 | > 100 µM
C#CCn1c(=O)c(Cl)cn(/C(=C/C(=O)OCC)C(=O)OCC)c1=O | 51.1 µM
CC(NC(=O)C(N)CC(=O)O)NC(=O)N(C)C(C)(C)C (stereo not given) | > 100 µM
CCN(CC)CCCC(C)NC(=O)c1ccc2c(c1)C(=O)c1ccccc1C2=O (stereo not given) | 80.4 µM
CC(=O)O[C@H]1C[C@H]2C(=S)Nc3ccccc3C(=S)N2C1 | > 100 µM
O=C(/C=C/c1ccccc1Cl)c1ccc(Cl)cc1Cl | 31.3 µM
CS(=O)(=O)OCCN(CCOS(C)(=O)=O)c1ccc(C=O)cc1 | 43.5 µM
COc1ccc(-c2cc(=O)c3c(OC)c(OC)c(OC)c(OC)c3o2)c(OC)c1 | > 100 µM

---

# Test system: RPMI-8226 leukemia
# run.description: NCI tumour cell line growth inhibition, 48 h
*1 amine or outer side, *2 acyl side, *3 side chain or, on linkers, in order; H or OH if unused. Where a SMILES comes first, the peptide text is derived from it. [ ]: non-standard residue; d: D form. X56 = CC[C@H](C)[C@H](OC(=O)[C@@H](C)[C@@H](CC)N[*:1])C(=O)[*:2]; X32 = C[C@H](N[*:1])C(=O)C(C)(C)C(=O)[*:2]; NMeY = CN[C@@H](Cc1ccc(O)cc1)C(=O)O; NMeL = CN[C@@H](CC(C)C)C(=O)O; NMeV = CN[C@H](C(=O)O)C(C)C
readout.name: log10 TGI (log10 of the value in µM)

compound | system.tested | log10 TGI
C=C1C(=O)O[C@@H]2[C@H](O)[C@@H](C)[C@@H]3C=CC(=O)[C@@]3(C)[C@H](OC(=O)C=C(C)C)[C@H]12 | RPMI-8226 leukemia | -0.01
Cc1cccc(C)c1NC(=O)CCc1n[nH]c(=S)o1 | RPMI-8226 leukemia | 1.75
CC(C)C1CC[C@H](C)C[C@@H]1OC(=O)C(C(=O)O[C@H]1C[C@@H](C)CCC1C(C)C)C(O)[C@@H]1OC(C)(C)O[C@H]1C1COC(C)(C)O1 (some centres not stated) | RPMI-8226 leukemia | 1.65
CC[C@H](C)[C@@H]1OC(=O)[C@@H](C)[C@@H](CC)NC(=O)[C@H](C)NC(=O)C(C)(C)C(=O)[C@H](C)NC(=O)[C@H](Cc2ccc(OC)cc2)N(C)C(=O)[C@H](C(C)C)N(C)C(=O)CNC(=O)[C@H](CC(C)C)N(C)C(=O)CNC1=O (cyclo(A[X56]G[NMeL]G[NMeV][NMeY](Me)[X32])) | RPMI-8226 leukemia | 0.53
CC(=O)OC1Oc2ccccc2-c2oc(=O)c(-c3cc4ccccc4oc3=O)cc21 (configuration not stated) | RPMI-8226 leukemia | 1.61
Oc1ccc(C#CCOc2ccccc2)cc1CNCCN(Cc1ccccn1)Cc1ccccn1 | RPMI-8226 leukemia | 0.79
CC(=O)OCC1=C(C)C[C@H]([C@@H](COC(C)=O)C2CCC3C4C[C@H]5O[C@]56CC=CC(=O)[C@]6(C)C4CC[C@@]32C)OC1=O (some centres not stated) | RPMI-8226 leukemia | -0.74
C=C(C(=O)OC)c1cc2ccccc2n1S(=O)(=O)c1ccccc1 | RPMI-8226 leukemia | 0.73
O=C(OCCC12CC3CC(CC(C3)C1)C2)c1ccc(NCc2cc(O)ccc2O)cc1 | RPMI-8226 leukemia | -0.18
